Assay: MTT cytotoxicity assay on Vero cells
Format: cell-based
Conditions: monkey, Vero kidney cells; Vero cells, MTT; read-out: Cytotoxicity LC50 Vero
Assay Readout: CC50 (µg/mL)
Form entry: value (µg/mL) — number only.

What does the record list as CC50 for COc1ccc(C[C@H](N)C(=O)N[C@H]2[C@@H](O)[C@H](n3cnc4c(N(C)C)ncnc43)O[C@@H]2CO)cc1 [Puromycin, reference compound] ?
5.32

Would you mind doing COc1cccc2c1C(=O)c1c(O)c3c(c(O)c1C2=O)C[C@@](O)(C(=O)CO)C[C@@H]3O[C@H]1C[C@H](N)[C@H](O)[C@H](C)O1 [Doxorubicin] as well?
9.35

Field entry: C=C1[C@@]23O[C@@H]2C[C@@H](c2ccoc2)[C@]3(C)[C@@H](OC(=O)C(O)C(C)CC)[C@H](C(=O)O)[C@]1(C)[C@](C)(C1CC(=O)O[C@]1(C)CO)[C@H](CC(=O)OC)OC(C)=O (some centres unmarked) [Compound 1, trichilia lactone D5]
89.2

Item: C=C1[C@@]23O[C@@H]2C[C@@H](c2ccoc2)[C@]3(C)[C@@H](OC(=O)C(O)C(C)CC)[C@@H]2O[C@H]3CC(=O)O[C@]4(C)COC(=O)CC4[C@@]3(C)[C@]12C (some centres unmarked) [Compound 3, dregeanin DM4]
75.8

Try C=C1[C@@]2(O)C(=O)C[C@@H](c3ccoc3)[C@]2(C)[C@@H](OC(=O)C(O)C(C)CC)[C@@H]2O[C@H]3CC(=O)O[C@]4(C)COC(=O)CC4[C@@]3(C)[C@]12C (some centres unmarked) [Compound 2, rohituka 3] next.
85.2
